Experiment: Pharmacokinetic profile of locally administered formulations vs i.v docetaxel (Example 11)
Format: in vivo, Sprague-Dawley female Rats
Details: female, Sprague-Dawley, rat, iv; plasma docetaxel; single i.v 10 mg/kg
metric: half-life (h)
Give bare numbers, in h.

INPUT: Which half-life value belongs to CC(=O)O[C@@]12CO[C@@H]1C[C@H](O)[C@@]1(C)C(=O)[C@H](O)C3=C(C)[C@@H](OC(=O)[C@H](O)[C@@H](NC(=O)OC(C)(C)C)c4ccccc4)C[C@@](O)([C@@H](OC(=O)c4ccccc4)[C@H]21)C3(C)C ?
OUTPUT: 23.1

###

Test: Pharmacokinetic profile of locally administered formulations vs i.v docetaxel (Example 11)
Assay type: in vivo, Sprague-Dawley female Rats
Settings: female, Sprague-Dawley, rat, intravenous; plasma docetaxel; single i.v 10 mg/kg
metric: Cmax
Express your answer as a number followed by its unit.

INPUT: Dear colleague, I am looking for the recorded Cmax of the following compound: CC(=O)O[C@@]12CO[C@@H]1C[C@H](O)[C@@]1(C)C(=O)[C@H](O)C3=C(C)[C@@H](OC(=O)[C@H](O)[C@@H](NC(=O)OC(C)(C)C)c4ccccc4)C[C@@](O)([C@@H](OC(=O)c4ccccc4)[C@H]21)C3(C)C [docetaxel]
OUTPUT: 881 ng/mL
